Test system: HCT-116 colon
Experiment: NCI tumour cell line growth inhibition, 48 h
Measurement Name: TGI

Report value only: TGI, HCT-116 colon, CN(C)c1c(Cl)c(=O)oc2c1ccc1nc(-c3ccccc3)sc12
> 100 µM

Report value only: TGI, HCT-116 colon, C[C@]12CC[C@H](O)CC1=CC[C@@H]1[C@@H]2CC[C@]2(C)C(=O)/C(=C/c3cccc(OCCCn4ccnc4)c3)C[C@@H]12
30.2 µM

Report value only: TGI, HCT-116 colon, CCOC(=O)CC(C)C(C#N)(OP1(=O)OC(c2ccccc2)C(C)N1C)c1ccccc1 (stereo not drawn)
> 100 µM

Report value only: TGI, HCT-116 colon, C=CCN1C(=O)CS/C1=N\NC(=O)c1c(C)nc2sccn12
> 100 µM

Report value only: TGI, HCT-116 colon, COc1ccc(-n2c(CCCC(=O)O)nc3c2C(=O)c2ccccc2C3=O)cc1
> 100 µM

Report value only: TGI, HCT-116 colon, Cc1c(C)c(C)c(-n2c(=O)n(C)c(=O)n2C(C)(C)C)c(C)c1C
> 100 µM

Report value only: TGI, HCT-116 colon, c1ccc2c(c1)O[As](O[As]1Oc3ccccc3O1)O2
14.1 µM

Report value only: TGI, HCT-116 colon, CC(=O)O[C@]1(C(C)=O)CC[C@H]2[C@@H]3C[C@H](C)C4=CC(=O)C=C[C@]4(C)[C@@]3(F)[C@@H](O)C[C@@]21C
> 100 µM

---

System: LOX IMVI melanoma
Assay: NCI tumour cell line growth inhibition, 48 h
Measurement Name: TGI

Hello, please tell me recorded TGI for this one: COc1ccc(-n2c(CCCC(=O)O)nc3c2C(=O)c2ccccc2C3=O)cc1
> 100 µM

Hello, please tell me recorded TGI for this one: OCC(O)COc1ccc(Br)cc1 (stereo unspecified)
> 100 µM

Hello, please tell me recorded TGI for this one: Cc1c(/C=C2\CC/C(=C\c3[nH]c(C(=O)OC(C)(C)C)c(C)c3C)C2=O)[nH]c(C(=O)OC(C)(C)C)c1C
> 100 µM

Hello, please tell me recorded TGI for this one: O=C(Cn1ccnc1[N+](=O)[O-])N(CCO)CCO
> 1250 µM

Hello, please tell me recorded TGI for this one: CS(=O)(=O)C1S(=O)(=O)OCCOS1(=O)=O
> 100 µM

Hello, please tell me recorded TGI for this one: O=c1cc2n(c(=O)[nH]1)C1OC(C(O)C1O)[C@@H]2CCO (stereo partly specified)
> 100 µM

Hello, please tell me recorded TGI for this one: COc1ccc2c(c1)Oc1nc(N)c(C#N)c(N)c1C2Sc1ccc(SC)cc1 (stereo unspecified)
3.21 µM

Hello, please tell me recorded TGI for this one: COc1ccc(/C=C2/CN(C(=O)c3ccccc3F)C/C(=C\c3ccc(OC)cc3)C2=O)cc1
3.24 µM

Hello, please tell me recorded TGI for this one: C=C/C(C)=C/[C@H](C)C(=O)C[C@H](O)CC1CC(=O)NC(=O)C1
> 100 µM

Hello, please tell me recorded TGI for this one: O=C1CCC2(c3ccc(F)cc3)Nc3ccccc3N12 (stereo unspecified)
> 100 µM

Hello, please tell me recorded TGI for this one: CCOC(=O)NNC(=O)NCCNC(=O)NNC(=O)OCC
> 100 µM
